From: PubChem BioAssay (Tox21)

Tgt: Muscarinic acetylcholine receptor M1 (Homo sapiens) (UniProt P11229)
Sequence (P11229 whole entry, looked up): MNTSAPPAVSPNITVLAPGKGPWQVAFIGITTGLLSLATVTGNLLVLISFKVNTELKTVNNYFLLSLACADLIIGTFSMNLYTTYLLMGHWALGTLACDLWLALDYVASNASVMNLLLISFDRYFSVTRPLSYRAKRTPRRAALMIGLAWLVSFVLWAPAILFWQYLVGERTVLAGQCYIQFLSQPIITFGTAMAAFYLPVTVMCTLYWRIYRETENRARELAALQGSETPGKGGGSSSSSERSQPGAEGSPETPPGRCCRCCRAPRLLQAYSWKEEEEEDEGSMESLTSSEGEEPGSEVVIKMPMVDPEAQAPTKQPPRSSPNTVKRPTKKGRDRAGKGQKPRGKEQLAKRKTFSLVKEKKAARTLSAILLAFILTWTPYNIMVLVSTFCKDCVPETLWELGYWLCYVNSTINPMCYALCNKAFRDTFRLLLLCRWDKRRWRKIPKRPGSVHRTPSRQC
Assay info: Cholinergic receptor muscarinic 1 (CHRM1) small molecule antagonists, cell-based qHTS assay (AID 1963588); also: nearly all actives have a fitted effect of over 40% in size
Setup conditions: CHRM1-CHO antagonist mode, calcium flux fluorescence; series mostly up to 61.5 µM
From the text: National Center for Advancing Translational Sciences [NCATS] Division of Preclinical Innovation [DPI] U.S. Environmental Protection Agency [EPA] National Institutes of Environmental Health Sciences [NIEHS] National Toxicology Program [NTP] U.S. Food and Drug Administration [FDA] The CHRM1 is a muscarinic receptor. […] The CHRM1-CHO Calcium Flux Assay is a homogeneous fluorescence-based assay for detecting the intracellular calcium level using FDSS kinetic plate reader system. […]
Records with an inconclusive call do not appear. Active and inactive are the calls of the source. Calls follow the shape of the full dose curve.
Experimental endpoint: activity, negative = inhibition

Before answering, review these 5 worked examples.
{"columns": ["Compound", "activity, negative = inhibition"],
 "data": [
  ["O=P(O)(O)O", "inactive"],
  ["CC1CCC(C(C)(C)O)CC1 (stereo not drawn)", "inactive"],
  ["C=C(C)[C@@H]1CCC2=CCC[C@@H](C)[C@]2(C)C1", "inactive"],
  ["ClC(c1ccccc1)(c1ccccc1)c1ccccc1", "inactive"],
  ["CC(=O)OCCC1CCCCC1", "inactive"]
]}

// each compound listed below needs its activity, negative = inhibition
1. Cc1ccc(N=Nc2c(O)ccc3ccccc23)c(C)c1
2. COc1ccc(COC(C)=O)cc1
3. COc1ccc2c(c1)CCCC2=O

Given back:
1. inactive
2. inactive
3. inactive
